Origin of values: patent US5736376A

- EXPERIMENTAL_SYSTEM: ECE-2 (Bos taurus, UniProt P0DPE2)
- Construct: solubilized crude membranes or live cells
- Sequence (P0DPE2 97-883): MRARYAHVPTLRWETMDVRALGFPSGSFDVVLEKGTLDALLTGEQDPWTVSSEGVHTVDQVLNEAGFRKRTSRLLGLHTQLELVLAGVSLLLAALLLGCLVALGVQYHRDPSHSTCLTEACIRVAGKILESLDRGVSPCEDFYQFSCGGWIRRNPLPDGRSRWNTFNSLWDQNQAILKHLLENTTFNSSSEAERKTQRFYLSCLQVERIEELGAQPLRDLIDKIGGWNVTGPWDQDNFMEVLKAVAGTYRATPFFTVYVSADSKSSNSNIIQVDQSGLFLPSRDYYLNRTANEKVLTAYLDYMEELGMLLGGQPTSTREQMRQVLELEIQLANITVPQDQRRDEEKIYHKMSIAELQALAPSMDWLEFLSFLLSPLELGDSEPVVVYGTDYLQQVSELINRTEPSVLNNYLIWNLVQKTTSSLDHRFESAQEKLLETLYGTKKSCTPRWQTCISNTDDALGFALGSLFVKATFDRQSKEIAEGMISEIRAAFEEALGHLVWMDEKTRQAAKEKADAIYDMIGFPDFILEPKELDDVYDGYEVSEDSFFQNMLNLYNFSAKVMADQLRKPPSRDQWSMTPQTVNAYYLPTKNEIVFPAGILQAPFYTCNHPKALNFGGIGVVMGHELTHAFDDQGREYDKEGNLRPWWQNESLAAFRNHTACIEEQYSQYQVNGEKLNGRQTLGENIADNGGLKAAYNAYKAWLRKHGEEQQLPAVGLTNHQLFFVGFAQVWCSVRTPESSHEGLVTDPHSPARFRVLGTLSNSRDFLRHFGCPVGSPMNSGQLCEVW
- ASSAY_METHOD_TEXT: Protease inhibitor assay of ECE-2, solubilized CHO/ECE-2 membranes, big ET-1 conversion, pH 5.5
- Format: biochemical, bovine
- TEST_SETTINGS: in vitro, pH 5.5
OUTCOME_MEASURE: IC50 (µM)
Give the quantity in µM, number only.

Field request: IC50 | item: COc1c2c(c(O)c3c1C(O)Cc1cc(CC(C)O)c(C(=O)O)c(O)c1-3)C(=O)c1cccc(O)c1C2=O (stereo not shown) [FR901533] 3

----------
- EXPERIMENTAL_SYSTEM: ECE-2 (Bos taurus)
- Construct: solubilized crude membranes or live cells
- ASSAY_METHOD_TEXT: Protease inhibitor assay of ECE-2, solubilized CHO/ECE-2 membranes, big ET-1 conversion, pH 5.5
- Assay type: biochemical, bovine
- TEST_SETTINGS: in vitro (test tube), pH 5.5
OUTCOME_MEASURE: IC50 (nM)
Give the quantity in nM, number only.

For ECE-2 (Bos taurus), provide IC50 of CC(C)C[C@H](NP(=O)(O)O[C@@H]1O[C@@H](C)[C@H](O)[C@@H](O)[C@H]1O)C(=O)N[C@@H](Cc1c[nH]c2ccccc12)C(=O)O [Phosphoramidon] please. 4

----------
- EXPERIMENTAL_SYSTEM: ECE-1 (Bos taurus)
- Construct: made in house
- Sequence (P42891 whole entry): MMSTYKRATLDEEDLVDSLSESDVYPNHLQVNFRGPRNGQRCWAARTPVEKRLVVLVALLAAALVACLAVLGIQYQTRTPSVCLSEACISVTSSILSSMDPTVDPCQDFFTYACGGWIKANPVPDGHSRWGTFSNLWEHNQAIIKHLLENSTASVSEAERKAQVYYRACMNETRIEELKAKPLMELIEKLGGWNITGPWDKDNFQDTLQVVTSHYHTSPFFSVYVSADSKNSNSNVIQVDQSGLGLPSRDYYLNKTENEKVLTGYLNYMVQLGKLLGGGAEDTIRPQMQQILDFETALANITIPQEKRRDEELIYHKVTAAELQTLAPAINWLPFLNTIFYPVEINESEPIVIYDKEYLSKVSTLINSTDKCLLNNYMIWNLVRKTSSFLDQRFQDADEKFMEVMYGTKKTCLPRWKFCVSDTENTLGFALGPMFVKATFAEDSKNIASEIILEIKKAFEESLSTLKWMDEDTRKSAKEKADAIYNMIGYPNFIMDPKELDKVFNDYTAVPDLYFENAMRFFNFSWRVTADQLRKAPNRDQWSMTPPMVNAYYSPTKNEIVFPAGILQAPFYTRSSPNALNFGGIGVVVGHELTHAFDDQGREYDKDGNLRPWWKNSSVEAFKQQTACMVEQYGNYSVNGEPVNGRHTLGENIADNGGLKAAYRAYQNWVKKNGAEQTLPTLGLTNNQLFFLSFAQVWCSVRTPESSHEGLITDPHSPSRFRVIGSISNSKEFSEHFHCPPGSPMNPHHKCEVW
- ASSAY_METHOD_TEXT: Coculture of CHO/ECE-1 and CHO/preproET-1 cells: cleavage of exogenously supplied big ET-1
- Type: cell-based, bovine
pIC50: −log10 of the molar value.
OUTCOME_MEASURE: pIC50

Field request: pIC50 | item: COc1c2c(c(O)c3c1C(O)Cc1cc(CC(C)O)c(C(=O)O)c(O)c1-3)C(=O)c1cccc(O)c1C2=O (stereo not shown) ~6.00
